ASSAYED TARGET: Protein translocase subunit SecA (Escherichia coli (strain K12)) (UniProt P10408)
Sequence (P10408 whole entry): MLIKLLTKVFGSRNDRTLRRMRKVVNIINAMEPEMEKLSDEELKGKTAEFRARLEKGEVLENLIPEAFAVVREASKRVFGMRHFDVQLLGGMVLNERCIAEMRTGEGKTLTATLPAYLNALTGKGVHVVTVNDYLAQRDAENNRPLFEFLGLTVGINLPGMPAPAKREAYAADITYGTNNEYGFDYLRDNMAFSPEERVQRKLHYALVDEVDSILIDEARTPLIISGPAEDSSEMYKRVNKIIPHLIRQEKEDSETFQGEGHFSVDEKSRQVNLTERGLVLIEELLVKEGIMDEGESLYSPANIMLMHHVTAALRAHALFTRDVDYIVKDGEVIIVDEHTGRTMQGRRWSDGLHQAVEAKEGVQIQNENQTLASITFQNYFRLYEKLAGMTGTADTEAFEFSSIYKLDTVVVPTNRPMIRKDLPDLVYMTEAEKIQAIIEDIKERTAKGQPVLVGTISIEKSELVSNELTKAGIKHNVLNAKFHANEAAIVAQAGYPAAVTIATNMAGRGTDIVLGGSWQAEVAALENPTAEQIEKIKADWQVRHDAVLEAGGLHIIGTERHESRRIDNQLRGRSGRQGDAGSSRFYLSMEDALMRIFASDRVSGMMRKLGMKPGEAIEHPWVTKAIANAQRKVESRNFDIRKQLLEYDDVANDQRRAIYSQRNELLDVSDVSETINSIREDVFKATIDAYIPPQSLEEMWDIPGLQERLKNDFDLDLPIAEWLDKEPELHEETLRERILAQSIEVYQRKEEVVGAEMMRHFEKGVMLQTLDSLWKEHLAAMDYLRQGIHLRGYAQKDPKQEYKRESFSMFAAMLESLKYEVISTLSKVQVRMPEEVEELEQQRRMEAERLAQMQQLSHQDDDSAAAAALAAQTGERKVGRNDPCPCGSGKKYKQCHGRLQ
EXPERIMENT SUMMARY: Assay to Identify E. coli SecA ATPase Inhibitors
Assay type: functional
Set-up: scale not given: direction of the effect not stated beside the values
CONDITION NOTES: 30 µM
Measured potencies and affinities stand elsewhere.
Kindly supply the reported Percent Effect values for the records listed here.
One number for each entry, in %.

MOLECULE: CC(=O)N1CCN(CC2CCOc3ccccc3C2)CC1 (centres undefined)
Percent Effect (%): -5.96
--
MOLECULE: COCC(=O)NCc1cc(=O)n2c(n1)CN(Cc1ccsc1)CCC2
Percent Effect (%): -5.93
--
MOLECULE: O=S(=O)(CCNCc1cccc2c1OCCO2)N1CCOCC1
Percent Effect (%): 0.589
--
MOLECULE: Cc1cccc(NS(=O)(=O)c2cc(C(=O)O)oc2C)c1Cl
Percent Effect (%): -6.42
--
MOLECULE: Cc1cc(CN(C)Cc2cc3c(cc2OC(F)F)OCO3)on1
Percent Effect (%): -6.72

For each of the molecules below, note its Percent Effect.
1. Cc1cc(C)cc(OCCC(=O)N2CCOCC2c2ncon2)c1 (centres undefined)
2. Cc1noc(C)c1CNc1cc(N2CCCC2CO)ncn1 (centres undefined)
3. O=S(=O)(c1cccnc1)N1CCN(CCn2ccnc2)CC1
4. O=C(NCCCn1cccn1)C1(c2ccc(F)cc2)CC1
5. Cc1cc(C[S+]([O-])CC(=O)NCC(C)C)no1 (centres undefined)
6. Cc1noc(C2CCC3(CCN(C(=O)C4=CCCCC4)CC3)O2)n1 (centres undefined)
7. O=S(=O)(c1ccccc1)N1CCCN(CCCn2ccnc2)CC1
8. Cc1ccc(CNC(c2ccccc2)c2nccn2C)cc1C (centres undefined)

1: -7.26; 2: -2.84; 3: -4.58; 4: 0.73; 5: -4.4; 6: -7.11; 7: -1.12; 8: -0.655

For each of the molecules below, note its Percent Effect.
1. CC(=O)N1CCC2(CC1)CC(Oc1ccccc1)CO2 (centres undefined)
2. O=C(Cc1cccc(F)c1)N1CCCCC1c1ccn2ccnc2n1 (centres undefined)
3. CNc1nc(CNC(=O)Nc2cccc(F)c2)cs1
4. NC(=O)C1(c2cnccn2)CCCN1Cc1cc2ccccc2o1 (centres undefined)
5. CN(C)S(=O)(=O)N1CCN(c2nccc(C(F)(F)F)n2)CC1
6. O=C(C1CC=CC1)N1CCc2c(COCc3ccncc3)cncc2C1
7. CCCc1n[nH]c(C2CN(C(=O)C3=COCCC3)CCO2)n1 (centres undefined)

1.79
-5.83
-4.85
-2.52
-2.09
0.346
-3.49

For each of the molecules below, note its Percent Effect.
1. CC(C)(CNC(=O)OC(C)(C)C)NC(=O)C1CC(=O)N(C2CC2)C1 (centres undefined)
2. CC(C)C(=O)NC1CCN(Cc2cccc3c2OCCO3)CC1
3. COCc1cccc(CNC(=O)CN2CCCC2c2noc(C)n2)c1 (centres undefined)
4. Cc1cc(C)c2c(c1)C1(CC(=O)Nc3c1cnn3C(C)C)C(=O)N2 (centres undefined)

1: -7.68; 2: -2.08; 3: -2.68; 4: 0.0889
